Readings of inhibition of growth at 10 µM for the listed compounds
Tested on: SN12C
Test: Growth inhibition of human SN12C cells at 10 uM after 48 hrs by SRB method
Assay type: functional
Conditions: read-out: GI
A number alone suffices; assume %.

Some entries whose results are on file:
chemical_smiles=O=C(CN1CCN(c2nnc(-c3ccccc3)c3ccccc23)CC1)Nc1nc(-c2ccc(Cl)cc2)cs1 meas_value=30
chemical_smiles=O=C(CN1CCN(c2nnc(-c3ccccc3)c3ccccc23)CC1)Nc1nc(-c2ccccc2)cs1 meas_value=32
chemical_smiles=CCOC(=O)c1ccc(NC(=O)CN2CCN(c3nnc(-c4ccccc4)c4ccccc34)CC2)cc1 meas_value=58

Moving on to another compound below.
Query inhibition of growth at 10 µM for `Cc1nc(NC(=O)CN2CCN(c3nnc(-c4ccccc4)c4ccccc34)CC2)sc1C(=O)Nc1ccccc1`
50

----------
Test system: MCF7
Assay: Growth inhibition of human MCF7 cells at 10 uM after 48 hrs by SRB method
Assay type: functional
Settings: MCF7, 48 h, read-out: GI
inhibition of growth at 10 µM: recorded values

Here's what some known entries look like.
chemical_smiles=O=C(CN1CCN(c2nnc(-c3ccccc3)c3ccccc23)CC1)Nc1nc(-c2ccc(Cl)cc2)cs1 target_system=MCF7 meas_value=44%
chemical_smiles=O=C(CN1CCN(c2nnc(-c3ccccc3)c3ccccc23)CC1)Nc1nc(-c2ccccc2)cs1 target_system=MCF7 meas_value=53%
chemical_smiles=N#Cc1ccc(NC(=O)CN2CCN(c3nnc(-c4ccccc4)c4ccccc34)CC2)cc1 target_system=MCF7 meas_value=30%
chemical_smiles=Cc1nc(NC(=O)CN2CCN(c3nnc(-c4ccccc4)c4ccccc34)CC2)sc1C(=O)Nc1ccccc1 target_system=MCF7 meas_value=65%
chemical_smiles=CCOC(=O)c1ccc(NC(=O)CN2CCN(c3nnc(-c4ccccc4)c4ccccc34)CC2)cc1 target_system=MCF7 meas_value=82%

Now consider a different molecule.
// Input: `O=C(CN1CCN(c2nnc(-c3ccccc3)c3ccccc23)CC1)Nc1cccc(C(F)(F)F)c1` . Output its inhibition of growth at 10 µM only.
41%

----------
Test system: T47D
Experiment: Growth inhibition of human T47D cells at 10 uM after 48 hrs by SRB method
Assay type: functional
Details: read-out: GI
Could you label it Satisfied if measured inhibition of growth at 10 µM is 60% or higher, and Not satisfied otherwise?

Reference set, count: 3
chemical_smiles=CCOC(=O)c1sc(NC(=O)CN2CCN(c3nnc(-c4ccccc4)c4ccccc34)CC2)nc1C label=Satisfied
chemical_smiles=COc1ccc(NC(=O)CN2CCN(c3nnc(-c4ccccc4)c4ccccc34)CC2)cc1 label="Not satisfied"
chemical_smiles=COc1ccc(C(=O)CN2CCN(c3nnc(-c4ccccc4)c4ccccc34)CC2)cc1 label="Not satisfied"

Tell me whether inhibition of growth at 10 µM is at least 60% here: `CC(=O)c1sc(NC(=O)CN2CCN(c3nnc(-c4ccccc4)c4ccccc34)CC2)nc1C`
Satisfied

Record `O=C(CN1CCN(c2nnc(-c3ccccc3)c3ccccc23)CC1)Nc1nc(-c2ccc(Cl)cc2)cs1` ; criterion: inhibition of growth at 10 µM no lower than 60%. Met?
Satisfied

For this compound, is measured inhibition of growth at 10 µM 60% or higher? `O=C(CN1CCN(c2nnc(-c3ccccc3)c3ccccc23)CC1)Nc1ccccc1Cl`
Not satisfied

Textbook exercise: given the entry `O=C(CN1CCN(c2nnc(-c3ccccc3)c3ccccc23)CC1)c1ccc(Cl)cc1` , state whether its inhibition of growth at 10 µM is greater than or equal to 60%.
Not satisfied

Can `N#Cc1ccc(NC(=O)CN2CCN(c3nnc(-c4ccccc4)c4ccccc34)CC2)cc1` be said to have inhibition of growth at 10 µM at or above 60%?
Satisfied

Would you say `O=C(CN1CCN(c2nnc(-c3ccccc3)c3ccccc23)CC1)Nc1ccc(Cl)cc1` shows inhibition of growth at 10 µM at minimum 60%?
Not satisfied

Item `O=C(CN1CCN(c2nnc(-c3ccccc3)c3ccccc23)CC1)Nc1nccs1` with inhibition of growth at 10 µM of 60% or above?
Satisfied

Reported inhibition of growth at 10 µM reaches at least 60% for `O=C(CN1CCN(c2nnc(-c3ccccc3)c3ccccc23)CC1)Nc1nc(-c2ccccc2)cs1` ?
Satisfied

Identify whether the reported inhibition of growth at 10 µM of the following compound is 60% or greater: `COc1ccc(-c2csc(NC(=O)CN3CCN(c4nnc(-c5ccccc5)c5ccccc45)CC3)n2)cc1`
Satisfied

----------
Entries and their measured inhibition of growth at 10 µM follow.
Test: Growth inhibition of human HL-60(TB) cells at 10 uM after 48 hrs by SRB method
Assay type: functional
Conditions: HL-60, 48 h, read-out: GI
Please respond with the number in % and leave the unit unwritten.

As a guide, the following entries are already answered.
chemical_smiles=CCOC(=O)c1sc(NC(=O)CN2CCN(c3nnc(-c4ccccc4)c4ccccc34)CC2)nc1C unit_symbol=% meas_value=43
chemical_smiles=O=C(CN1CCN(c2nnc(-c3ccccc3)c3ccccc23)CC1)Nc1ccc(Cl)cc1 unit_symbol=% meas_value=30
chemical_smiles=O=C(CN1CCN(c2nnc(-c3ccccc3)c3ccccc23)CC1)Nc1nc(-c2ccccc2)cs1 unit_symbol=% meas_value=50

Recall and state the measured inhibition of growth at 10 µM for `Cc1nc(NC(=O)CN2CCN(c3nnc(-c4ccccc4)c4ccccc34)CC2)sc1C(=O)Nc1ccccc1` .
83

Report measured inhibition of growth at 10 µM; entry is `COc1ccc(-c2csc(NC(=O)CN3CCN(c4nnc(-c5ccccc5)c5ccccc45)CC3)n2)cc1`
40

Please indicate inhibition of growth at 10 µM recorded for `O=C(CN1CCN(c2nnc(-c3ccccc3)c3ccccc23)CC1)Nc1nccs1`
38

Return reported inhibition of growth at 10 µM. Input compound: `N#Cc1ccc(NC(=O)CN2CCN(c3nnc(-c4ccccc4)c4ccccc34)CC2)cc1`
30

Provide inhibition of growth at 10 µM value for the following compound: `O=C(CN1CCN(c2nnc(-c3ccccc3)c3ccccc23)CC1)Nc1c(Cl)cccc1Cl`
38

Note down inhibition of growth at 10 µM recorded for `O=C(CN1CCN(c2nnc(-c3ccccc3)c3ccccc23)CC1)Nc1ccccc1Cl`
40

Dear colleague, please send me the reported inhibition of growth at 10 µM for `O=C(CN1CCN(c2nnc(-c3ccccc3)c3ccccc23)CC1)Nc1nc(-c2ccc(Cl)cc2)cs1` when you can.
45

----------
Assay: Growth inhibition of human SF268 cells at 10 uM after 48 hrs by SRB method
Assay type: functional
Settings: SF-268, 48 h, read-out: GI
measured.endpoint: inhibition of growth at 10 µM (%)
The response must be a number in % with no trailing unit.

Example entries and their recorded answers appear below.
chemical_smiles=CCOC(=O)c1ccc(NC(=O)CN2CCN(c3nnc(-c4ccccc4)c4ccccc34)CC2)cc1 measured_endpoint="inhibition of growth at 10 µM" meas_value=59
chemical_smiles=CCOC(=O)c1sc(NC(=O)CN2CCN(c3nnc(-c4ccccc4)c4ccccc34)CC2)nc1C measured_endpoint="inhibition of growth at 10 µM" meas_value=32
chemical_smiles=Cc1nc(NC(=O)CN2CCN(c3nnc(-c4ccccc4)c4ccccc34)CC2)sc1C(=O)Nc1ccccc1 measured_endpoint="inhibition of growth at 10 µM" meas_value=48

Now look at this one.
For the compound `O=C(CN1CCN(c2nnc(-c3ccccc3)c3ccccc23)CC1)Nc1nc(-c2ccc(Cl)cc2)cs1` , give its measured inhibition of growth at 10 µM value.
32

----------
System: SR
Test: Growth inhibition of human SR cells at 10 uM after 48 hrs by SRB method
Format: functional
Conditions: read-out: GI
Assign Satisfied to entries whose inhibition of growth at 10 µM meets or exceeds 50%; assign Not satisfied to the rest.

Example results:
chemical_smiles=O=C(CN1CCN(c2nnc(-c3ccccc3)c3ccccc23)CC1)Nc1ccccc1Cl target_system=SR label="Not satisfied"
chemical_smiles=O=C(CN1CCN(c2nnc(-c3ccccc3)c3ccccc23)CC1)Nc1nc(-c2ccccc2)cs1 target_system=SR label=Satisfied
chemical_smiles=O=C(CN1CCN(c2nnc(-c3ccccc3)c3ccccc23)CC1)Nc1nc(-c2ccc(Cl)cc2)cs1 target_system=SR label=Satisfied
chemical_smiles=CCOC(=O)c1sc(NC(=O)CN2CCN(c3nnc(-c4ccccc4)c4ccccc34)CC2)nc1C target_system=SR label=Satisfied
chemical_smiles=COc1ccc(-c2csc(NC(=O)CN3CCN(c4nnc(-c5ccccc5)c5ccccc45)CC3)n2)cc1 target_system=SR label="Not satisfied"
chemical_smiles=CCOC(=O)c1ccc(NC(=O)CN2CCN(c3nnc(-c4ccccc4)c4ccccc34)CC2)cc1 target_system=SR label=Satisfied

Evaluate `O=C(CN1CCN(c2nnc(-c3ccccc3)c3ccccc23)CC1)Nc1c(Cl)cccc1Cl` : inhibition of growth at 10 µM at minimum 50%?
Not satisfied

Entry `N#Cc1ccc(NC(=O)CN2CCN(c3nnc(-c4ccccc4)c4ccccc34)CC2)cc1` : is its inhibition of growth at 10 µM no less than 50%?
Not satisfied

----------
Test system: SK-MEL-5
Assay: Growth inhibition of human SK-MEL-5 cells at 10 uM after 48 hrs by SRB method
Type: functional
Details: SK-MEL-5, 48 h, read-out: GI
Would you mind sorting the entries by inhibition of growth at 10 µM according to these classes? bin 1 = under 40%, bin 2 = from 40% up to 50%, bin 3 = 50% and over

Example entries begin here.
chemical_smiles=Cc1nc(NC(=O)CN2CCN(c3nnc(-c4ccccc4)c4ccccc34)CC2)sc1C(=O)Nc1ccccc1 label="bin 3"
chemical_smiles=CCOC(=O)c1sc(NC(=O)CN2CCN(c3nnc(-c4ccccc4)c4ccccc34)CC2)nc1C label="bin 1"
chemical_smiles=N#Cc1ccc(NC(=O)CN2CCN(c3nnc(-c4ccccc4)c4ccccc34)CC2)cc1 label="bin 2"
chemical_smiles=CC(=O)c1sc(NC(=O)CN2CCN(c3nnc(-c4ccccc4)c4ccccc34)CC2)nc1C label="bin 1"
chemical_smiles=O=C(CN1CCN(c2nnc(-c3ccccc3)c3ccccc23)CC1)Nc1nccs1 label="bin 1"
chemical_smiles=O=C(CN1CCN(c2nnc(-c3ccccc3)c3ccccc23)CC1)Nc1c(Cl)cccc1Cl label="bin 2"

Dear colleague, I would appreciate it if you could identify the bin for `O=C(CN1CCN(c2nnc(-c3ccccc3)c3ccccc23)CC1)Nc1nc(-c2ccccc2)cs1` and reply at your convenience.
bin 3

Determine which band this molecule sits in: `COc1ccc(-c2csc(NC(=O)CN3CCN(c4nnc(-c5ccccc5)c5ccccc45)CC3)n2)cc1`
bin 2

Which band does `O=C(CN1CCN(c2nnc(-c3ccccc3)c3ccccc23)CC1)Nc1nc(-c2ccc(Cl)cc2)cs1` fall in?
bin 3
